# tested-target: human SCF248 (stem cell factor 248 isoform) expressed on mouse SI/SI4 cells (human), P21583
# Sequence (P21583 26-273): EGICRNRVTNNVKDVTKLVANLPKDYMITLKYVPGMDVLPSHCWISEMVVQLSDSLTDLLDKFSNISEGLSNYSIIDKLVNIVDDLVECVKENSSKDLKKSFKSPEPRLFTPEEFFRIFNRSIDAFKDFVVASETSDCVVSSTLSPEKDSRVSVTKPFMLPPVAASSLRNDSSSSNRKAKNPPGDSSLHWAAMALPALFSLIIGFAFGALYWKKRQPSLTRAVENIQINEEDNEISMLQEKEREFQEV
# test-summary: cell-based or functional assay
readout-kind: TGFβ Expression as Percentage of Positive Control (%)
Write it as a number; the unit % goes unstated.

binder: D14P mutant expressed as full length IgG4 antibody (antibody, V domains shown, Full length IgG4) VH: QVQLVQSGAELKKPGSSVKISCKSSGYAFSSQWMNWVKQRPGQGLEWIGQIYPGDDDTHYNDKFKGKATLTADKSTSTAYMELSSLTSEDSAVYFCSSSNWVGSYWGQGTLVTVSS VL: DVVMTQSPLSLPVTLGQPASISCKSSQSLLESDGNTYLNWLQQRPGQSPRRLIYLVDRLDLGVPDRFSGSGSGTDFTLKISRVEAEDVGVYYCWQGTDLPQTFGGGTKVEIK
reported-measurement: 48.8

binder: A104P mutant expressed as full length IgG4 antibody (antibody, V domains shown, Full length IgG4) VH: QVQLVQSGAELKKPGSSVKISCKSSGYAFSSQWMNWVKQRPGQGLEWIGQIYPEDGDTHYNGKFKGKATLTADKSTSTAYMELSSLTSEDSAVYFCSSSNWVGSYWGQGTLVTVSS VL: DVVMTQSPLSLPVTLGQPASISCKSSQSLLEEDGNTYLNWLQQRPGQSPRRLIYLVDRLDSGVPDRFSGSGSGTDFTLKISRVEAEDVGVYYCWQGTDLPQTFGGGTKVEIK
reported-measurement: 46.9

Now, please, on to the next binder.
Supply reported TGFβ Expression as Percentage of Positive Control belonging to this binder: D44P mutant expressed as full length IgG4 antibody (antibody, V domains shown, Full length IgG4) VH: QVQLVQSGAELKKPGSSVKISCKSSGYAFSSQWMNWVKQRPGQGLEWIGQIYPEDGDIHYNGKFKGKATLTADKSTSTAYMELSSLTSEDSAVYFCSSSNWVGSYWGQGTLVTVSS VL: DVVMTQSPLSLPVTLGQPASISCKSSQSLLEEDGNTYLNWLQQRPGQSPRRLIYLVDRLDSGVPDRFSGSGSGTDFTLKISRVEAEDVGVYYCWQGSHLPQTFGGGTKVEIK
58.5

All figures here come from patent US20240182556A1.
